system.tested: L-lactate dehydrogenase (Plasmodium falciparum (isolate CDC / Honduras))
experiment: PfLDH activity inhibition – cell lysate, 3D7 strain, counter-screen for P. falciparum growth inhibition project (AID 2304);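 also: 0% = vehicle and 100% = reference inhibitor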
conditions.used: P. falciparum 3D7 crude extract, LDH APAD/NBT absorbance; at 2 µM; active compounds read high
The source made the active and inactive calls. No rule for the calls is given here.
quantity.name: inhibition

So for Cc1cc2nc(-c3ccc(C(=O)NCc4cccc(C(F)(F)F)c4)cc3)[nH]c2cc1C , the logged inhibition turned out to be -9% (inactive)

So for CCCN1CCN(CCCNC(=O)c2cc3c(-c4ccc(Cl)cc4)nn(C)c3s2)CC1 , the logged inhibition turned out to be -3% (inactive)

So for Nc1nc(N)c2cc(S(=O)(=O)c3ccc4ccccc4c3)ccc2n1 , the logged inhibition turned out to be 3% (inactive)

So for CNC(=O)C1Cc2c([nH]c3ccc(Br)cc23)C2(CCN(CCc3ccccc3)CC2)N1 (stereo not given) , the logged inhibition turned out to be -2% (inactive)

So for CC(=O)Nc1ccc(-c2nc3ccc(-c4nc5ccc(NC(C)=O)cc5[nH]4)cc3[nH]2)cc1 , the logged inhibition turned out to be -2% (inactive)
